Listing: TGI of selected molecules
tested on: A498 renal; experiment: NCI tumour cell line growth inhibition, 48 h
Report the figure in µM without appending any unit label.

Below: 6 molecules and their reported TGI.
COc1cc2nc(N3CCC[C@H](NC4=CC(=O)c5ccccc5C4=O)C3)nc(N)c2cc1OC	34
COc1cc(S(=O)(=O)Nc2ccc(-c3csc(N4C(=O)C(Cl)C4c4ccccc4O)n3)cc2)ccc1Cl (stereo unspecified)	0.948
O=C1c2ccncc2C(=O)c2c(O)ccc(O)c21	33.1
COc1cc2c3c(n(C)c(=O)c2cc1OC)-c1cc2c(cc1/C3=C\CCCCCBr)OCO2	46
O=C(O)COc1ccc(OCC(=O)O)cc1	4.87
CCCCCCCCCCCNC=O	86.7

The value of TGI measured for the molecule O=C1CC(c2cccc(Cl)c2)Oc2ccccc21 (stereo unspecified) turned out to be 46.3

Record CC(C)(C)OC(=O)C(C#N)C(=O)c1ccc(C(=O)O)[nH]1 (stereo unspecified) . Reported TGI: 77.2

Consider `Cc1cc(=O)[nH]c(N/N=C/c2ccccc2O)n1` . Its measured TGI is 93.2

Field TGI (entry `O=C1Nc2cccc(Cl)c2/C1=C\c1c(-c2ccccc2)nc2n1CCS2` ) reads 39.4

====

tested on: EKVX NSCLC; assay: NCI tumour cell line growth inhibition, 48 h
Below is a list of entries, each paired with its recorded TGI value.

# molecule `C/C(=N\Nc1nc2ccccc2[nH]1)c1ncccn1` ; its TGI = 25.8 µM

====

# key: entry, value: TGI
system: PC-3 prostate; assay: NCI tumour cell line growth inhibition, 48 h

Worked examples, 5 molecules total:
c1cc2cc3c4c5c(cc6ccc7cc8cc9c%10c8c8c7c6c5c8c5c%10c(c1C9N1CCOCCOCCOCCOCCOCC1)c2c45)C3 (centres undefined)	> 100 µM
COc1ccc2c(c1O)[C@@]13CCCC=C1[C@@H](C2)[N+](C)(C)CC3	> 100 µM
COc1ccc(/C=C2\CCCc3ccccc3C2=O)cc1	> 100 µM
CCCCC#Cc1c(I)n(C2OC(CO[Si](C)(C)C(C)(C)C)C3OC(C)(C)OC32)c(=O)n(C(=O)c2ccccc2)c1=O (centres undefined)	22.9 µM
Cc1cc2nc3ccccc3n2c2ccccc12	> 10 µM

Lab note: measured TGI of O=[N+]([O-])c1ccc(N2N=C(c3c(O)ccc4ccccc34)CC2c2ccc(Cl)cc2)c([N+](=O)[O-])c1 (centres undefined) was 66.4 µM

Looking up `CN(C)C=N[C@@H](C(=O)O)c1ccccc1` , I see its TGI listed as > 100 µM

The recorded TGI for entry `N#C/C(=C/N1CCN(C(=O)c2ccco2)C1=S)C(=O)Nc1ccc(Cl)cc1` equals > 50 µM

Input `O=c1cc(-c2ccccc2)oc2c1ccc1[nH]c3ccccc3c(=O)c12` . Output TGI: > 100 µM

====

Below, each entry is listed with its recorded TGI.
test system: HCT-15 colon; assay: NCI tumour cell line growth inhibition, 48 h

Oc1cccc2c(Br)ccnc12	24.2 µM
O=C1CS/C(=N/S(=O)(=O)c2ccc(N3N=C4c5ccccc5CC4C3c3cccs3)cc2)N1C(=O)c1ccccc1 (stereo unspecified)	> 100 µM

Form field TGI for item `O=C1C(Cl)=C(Cl)C(=O)N1c1ccc(Cl)c(Cl)c1Cl` on HCT-15 colon: > 100 µM

Test item `O=c1cc(-c2ccccc2)[nH]c2c1CCCC2` ; HCT-15 colon; reported TGI was > 100 µM

Summary line: `c1ccc2c(Nc3ncco3)cccc2c1` , HCT-15 colon, reported TGI = > 10 µM

TGI of `CCCC1=C(OC)C(=O)c2c(C)cc(Cl)nc2C1=O` , assay on HCT-15 colon, is 11.2 µM

Reported HCT-15 colon TGI for item O=[N+]([O-])c1ccc(N2N=C(c3c(O)ccc4ccccc34)CC2c2ccc(Cl)cc2)c([N+](=O)[O-])c1 (stereo unspecified) was > 100 µM

Summary: `Cc1cc(N2CCCCC2)nc2ccc(Cc3ccc4nc(N5CCCCC5)cc(C)c4c3)cc12` , HCT-15 colon, TGI = > 100 µM

Tested on HCT-15 colon, the item COc1cc2c(cc1OC)C(C(CBr)CBr)N(C1CCCC1)CC2 (stereo unspecified) showed TGI equal to > 100 µM

Short answer on HCT-15 colon for `CC(C)C[C@H](NC(=O)Cn1cccc(CNC(=O)c2ccccc2)c1=O)B(O)O` , TGI: 37.3 µM

Form field TGI for item COC(=O)/C(C#N)=C1\CCC(OC)N1C (stereo unspecified) on HCT-15 colon: > 100 µM

====

test system: 786-0 renal; assay: NCI tumour cell line growth inhibition, 48 h
# class assignment by measured TGI: bottom end (below 7 µM), midrange (7 µM to below 30 µM), top end (30 µM or more)

COC(=O)CCC(=O)NC1=C(Nc2ccccc2)C(=O)c2ccccc2C1=O	midrange
Cc1cc(C)nc(NS(=O)(=O)c2ccc(NNc3c4ccccc4nc4c(C(=O)Nc5ccc(S(=O)(=O)Nc6cc(C)on6)cc5)cccc34)cc2)n1	top end
CCOC(=O)[C@@]12C(C)=CC(=O)O[C@]1(C)C1C(=O)NC(=O)C12 (some centres not stated)	top end
O=C1Nc2cccc(Cl)c2/C1=C\c1c(-c2ccccc2)nc2n1CCS2	top end
CC12OC(C(=O)C13CC3)C1C(=O)c3c(O)ccc(O)c3C(=O)C12 (configuration not stated)	bottom end

Data request: The entry to classify is CC(C)N(C(=O)C12C3C4C5(C(=O)O)C(C1C35I)C42C(=O)O)C(C)C (configuration not stated) ; which class holds it?
Data returned: top end

Data request: Using the reported TGI, which band applies to `COc1ccc(Br)c(CN2CCc3ccccc32)c1OS(=O)(=O)c1ccc(C)cc1` ?
Data returned: top end

Data request: Dear colleague, I would appreciate it if you could identify the bin for `COc1ccc2nc(C)cc(Sc3nc4ccccc4s3)c2c1` and reply at your convenience.
Data returned: bottom end

Data request: Which bin should I file `COc1cc(OC)c2c(=O)cc(-c3ccccc3OCc3ccccc3)oc2c1OC` under?
Data returned: top end

Data request: Looking at `COC(=O)[C@@H](NS(=O)(=O)CC12CCC(CC1)C2(C)C)C(C)(C)C` , which class would you pick?
Data returned: top end

Data request: Class label required: `CC(=O)c1c[nH]c2ccc(-c3ccnc(Nc4ccc(NC(=O)C5CCCC5)c(CN5CCOCC5)c4)n3)cc12`
Data returned: bottom end

Data request: Textbook exercise: identify the category of the molecule given here, CC1CCCC(C#N)(NOC2=NCCN2)C1 (configuration not stated) , according to its measured value.
Data returned: top end

Data request: Exam item: assign `CCN1CCN(c2cc(C(=O)Nc3cccc(Nc4ccc5c(OC)cccc5n4)c3)cc(C(F)(F)F)c2)CC1` to the correct category.
Data returned: midrange

Data request: Which category fits this record: COc1cc2c(cc1OC)C(C(CBr)CBr)N(C1CCCC1)CC2 (configuration not stated)
Data returned: top end

Data request: Band for the recorded TGI of `O=C1N2CCC[C@H]2CS1(=O)=O` ?
Data returned: midrange

Data request: For this molecule, which bin applies? `C1CSC[C@H]2COC[C@@H](CSCCS1)S2`
Data returned: top end

Data request: Bin? Cc1cc(=O)[nH]c(NNC(C#N)c2ccccc2O)n1 (configuration not stated)
Data returned: top end

====

system: MDA-MB-231 breast; assay: NCI tumour cell line growth inhibition, 48 h
PROPERTY_LABEL: TGI

Consider COc1ccc(C2NN=C3c4ccccc4CCC32)cc1 (stereo not given) . Its measured TGI is > 100 µM

Quick note, TGI for `C1CSC[C@H]2COC[C@@H](CSCCS1)S2` landed at > 100 µM

`O=C1C=CC(=O)c2c1ccc1c3ccccc3n(Cc3ccccc3)c21` has a reported TGI of 43.1 µM

So for `CCCCCCCCCCCNC=O` , the logged TGI turned out to be > 100 µM

Reported TGI ( `O=c1cc(N2CCOCC2)n2c(ccc3ccccc32)n1` ) = > 100 µM

TGI reported for this molecule `CCOc1ccc2nc3nc(=O)[nH]c(C)c3c(NC(C)(CO)CO)c2c1` : > 100 µM

molecule `O=c1c2ccccc2nc(N/N=C/c2ccc([N+](=O)[O-])cc2)n1-c1ccccc1` , TGI observed: > 100 µM

// TGI value for `Cc1cc2nc3ccccc3n2c2ccccc12` : > 10 µM

So, `O=Nc1c(-c2c(O)[nH]c3ccc(I)cc23)[nH]c2ccccc12` ? Its TGI was 9.77 µM

Query `FC(F)c1ncc(-c2ccc(C(F)(F)F)cc2)c(NC2CCCCCC2)n1` yields TGI of > 10 µM

====

Entries and their measured GI50 follow.
system: LOX IMVI melanoma; assay: NCI tumour cell line growth inhibition, 48 h

NC1=NC(SCc2ccccc2CCl)c2ncn(Cc3ccccc3CCl)c2N1 (stereo not given)	1.35 µM

Given the compound `CC(C)[P+](c1ccccc1)(c1ccccc1)c1ccccc1` and test system LOX IMVI melanoma, the measured GI50 is 9.94 µM

Reported GI50 (LOX IMVI melanoma) for entry COc1ccc(C2NN=C3c4ccccc4CCC32)cc1 (stereo not given) is 8.25 µM

The measured GI50 that `CN(C)CCN1C(=O)c2cccc3c(/C=C/CN4C(=O)c5cccc6cccc(c56)C4=O)ccc(c23)C1=O` showed for LOX IMVI melanoma is 14.5 µM

Form field GI50 for item `CC(C)=Cc1cc(C)c2ccc(C)c3c2c1C(C)=C(O)C3=O` on LOX IMVI melanoma: 69.3 µM

Measured GI50 for this entry CC1CCCC(C#N)(NOC2=NCCN2)C1 (stereo not given) on LOX IMVI melanoma: 12.7 µM

Lab entry: LOX IMVI melanoma assay, compound `COc1cc(OC)c2c(=O)cc(-c3ccccc3OCc3ccccc3)oc2c1OC` , GI50 = 10.2 µM

Fill in: LOX IMVI melanoma GI50 for `O=C1NC(=O)C(c2cccc(Cl)c2)=C1Nc1ccc(Cl)c(C(=O)O)c1` = > 25 µM

Value sought: GI50, system LOX IMVI melanoma, item COc1cc(S(=O)(=O)Nc2nc(-c3ccc(N4C(=O)C(C)SC4c4ccccc4O)cc3)cs2)ccc1Cl (stereo not given) . Result: 52.1 µM

The recorded GI50 with LOX IMVI melanoma for O=C1CS/C(=N/S(=O)(=O)c2ccc(N3N=C4c5ccccc5CC4C3c3cccs3)cc2)N1C(=O)c1ccccc1 (stereo not given) was 22.7 µM
